Origin of values: patent US7205410B2

# Measured on: 5HT4 (Rattus norvegicus)
# Construct: 5HT4 Antagonism in Rat Oesophageal Tunica Muscularis Mucosae; from tissue; host or cells: rat oesophageal tunica muscularis mucosae
# Assay: 5HT4 antagonism in rat oesophageal tunica muscularis mucosae
# Assay type: cell-based
# Condition description: 5HT4 antagonistic data; isolated rat oesophageal tunica muscularis mucosae, method of Baxter et al.; read-out: pA2 (converted)
Observable: Kb (nM)

Examples with their reported Kb follow.
Compound: O=C(NC[C@@H]1CCN(CCNc2nccc(O)n2)C[C@H]1O)c1cc(Cl)cc2c1OCCO2 (relative stereo) [Compound 85, monohydrate]
Observable: Kb
Number: 0.302

Compound: CC(=O)CCCN1CC[C@@H](CNC(=O)c2cc(Cl)cc3c2OCCO3)[C@H](O)C1 (racemic)
Observable: Kb
Number: 0.363

(P) COCCCN1CC[C@@H](CNC(=O)c2cc(Cl)cc3c2OCCO3)[C@H](O)C1 (racemic)
(Q) Cc1nccnc1NCCCN1CC[C@@H](CNC(=O)c2cc(Cl)cc3c2OCCO3)[C@H](O)C1 (racemic)
(R) CCCCN1CC[C@@H](CNC(=O)c2cc(Cl)cc3c2OCCO3)[C@H](O)C1 (racemic)
### Prompt Arrange these 3 compounds in increasing order of Kb. Return the labels ranked in the requested order, please.
### Response Q, R, P
(Q: 0.0282 nM, R: 0.1 nM, P: 0.372 nM)

###

# Measured on: 5HT4 (Rattus norvegicus, UniProt Q62758)
# Construct: 5HT4 Antagonism in Rat Oesophageal Tunica Muscularis Mucosae; from tissue; host or cells: rat oesophageal tunica muscularis mucosae
# Sequence (Q62758 whole entry): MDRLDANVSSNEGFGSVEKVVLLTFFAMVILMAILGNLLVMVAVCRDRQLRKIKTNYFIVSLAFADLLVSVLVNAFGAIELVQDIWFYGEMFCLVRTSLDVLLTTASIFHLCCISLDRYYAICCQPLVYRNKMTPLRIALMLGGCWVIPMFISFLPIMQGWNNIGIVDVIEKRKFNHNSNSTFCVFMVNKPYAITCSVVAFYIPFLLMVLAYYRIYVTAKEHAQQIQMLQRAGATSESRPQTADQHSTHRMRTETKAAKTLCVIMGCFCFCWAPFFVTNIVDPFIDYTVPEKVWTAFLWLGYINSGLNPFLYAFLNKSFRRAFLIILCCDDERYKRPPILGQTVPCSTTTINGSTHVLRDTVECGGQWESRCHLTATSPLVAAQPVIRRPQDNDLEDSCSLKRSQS
# Assay: 5HT4 antagonism in rat oesophageal tunica muscularis mucosae
# Type: cell-based
# Condition description: 5HT4 antagonistic data; isolated rat oesophageal tunica muscularis mucosae, method of Baxter et al.
Observable: pA2

Compound: O=C(CN1CCC(CNC(=O)c2cc(Cl)cc3c2OCC3)C(O)C1)c1ccccc1 (centres unmarked)
Observable: pA2
Number: 8.4
--
Compound: O=C(NCC1CCN(CCCO)CC1O)c1cc(Cl)cc2c1OCCCCO2 (centres unmarked)
Observable: pA2
Number: 10.1
--
Compound: O=C(NCC1CCN(CCCOc2ccc(F)cc2)CC1O)c1cc(Cl)cc2c1OCCO2.O=C(O)C(=O)O (centres unmarked)
Observable: pA2
Number: 8.83
--
Compound: CCCCN1CCC(CNC(=O)c2cc(Cl)cc3c2OCCO3)C(OC)C1.O=C(O)C(=O)O (centres unmarked)
Observable: pA2
Number: 8.2
--
Compound: O=C(CN1CCC(CNC(=O)c2cc(Cl)cc3c2OCCO3)C(O)C1)c1ccccc1.O=C(O)C(=O)O (centres unmarked)
Observable: pA2
Number: 8.44
--
Compound: COCCCN1CCC(CNC(=O)c2cc(Cl)cc3c2OCCCO3)C(O)C1 (centres unmarked)
Observable: pA2
Number: 9.72
--
Compound: Cl.O=C(O)CCCN1CCC(CNC(=O)c2cc(Cl)cc3c2OCCCCO3)C(O)C1 (centres unmarked)
Observable: pA2
Number: 9
--
Compound: COC1CN(CCCOc2ccc(F)cc2)CCC1CNC(=O)c1cc(Cl)cc2c1OCCO2.O=C(O)C(=O)O (centres unmarked)
Observable: pA2
Number: 9.2
--
Compound: O=C(NCC1CCN(CCCOc2ccc(F)cc2)CC1O)c1cc(Cl)cc2c1OCCO2 (centres unmarked)
Observable: pA2
Number: 7.93
--
Compound: COC(=O)CCCN1CCC(CNC(=O)c2cc(Cl)cc3c2OCC3)C(O)C1 (centres unmarked)
Observable: pA2
Number: 9.4
--
Compound: O=C(NCC1CCN(CCOCCO)CC1O)c1cc(Cl)cc2c1OCCCCO2 (centres unmarked)
Observable: pA2
Number: 8.3
--
Compound: COCCCN1CCC(CNC(=O)c2cc(Cl)cc3c2OCC3)C(O)C1 (centres unmarked)
Observable: pA2
Number: 8.07
--
Compound: O=C(NCC1CCN(CCCOc2ccc(F)cc2)CC1O)c1cc(Cl)cc2c1OCC2 (centres unmarked) [Compound 13]
Observable: pA2
Number: 8.35
--
Compound: COC(=O)CCCN1CCC(CNC(=O)c2cc(Cl)cc3c2OCCO3)C(O)C1 (centres unmarked)
Observable: pA2
Number: 9.4

###

# Measured on: 5HT4 (Rattus norvegicus, UniProt Q62758)
# Construct: 5HT4 Antagonism in Rat Oesophageal Tunica Muscularis Mucosae; from tissue; host or cells: rat oesophageal tunica muscularis mucosae
# Assay: 5HT4 antagonism in rat oesophageal tunica muscularis mucosae
# Assay type: cell-based
# Condition description: 5HT4 antagonistic data; isolated rat oesophageal tunica muscularis mucosae, method of Baxter et al.
Observable: pA2

Compound: CC(=O)CCCN1CCC(CNC(=O)c2cc(Cl)cc3c2OCCCO3)C(O)C1 (stereo not drawn)
pA2: 9.9
//
Compound: CCCCN1CCC(CNC(=O)c2cc(Cl)cc3c2OCC3)C(O)C1 (stereo not drawn) [Compound 1]
pA2: 8.53
//
Compound: CCCCN1CCC(CNC(=O)c2cc(Cl)cc3c2OCC3)C(O)C1 (stereo not drawn) [Compound 2]
pA2: 10.5

###

# Measured on: 5HT4 (Rattus norvegicus)
# Construct: 5HT4 Antagonism in Rat Oesophageal Tunica Muscularis Mucosae; from tissue; host or cells: rat oesophageal tunica muscularis mucosae
# Assay: 5HT4 antagonism in rat oesophageal tunica muscularis mucosae
# Assay type: cell-based
# Condition description: 5HT4 antagonistic data; isolated rat oesophageal tunica muscularis mucosae, method of Baxter et al.
Observable: pA2

Molecule: N#CCCCN1CCC(CNC(=O)c2cc(Cl)cc3c2OCCO3)C(O)C1.O=C(O)C(=O)O (stereo not shown)
pA2: 9.22
--
Molecule: O=C(NCC1CCN(CCCOc2ccc(F)cc2)CC1O)c1cc(Cl)cc2c1OCC2 (stereo not shown) [Compound 14]
pA2: 9.2
--
Molecule: O=C(NCC1CCN(Cc2ccccc2)CC1O)c1cc(Cl)cc2c1OCC2 (stereo not shown) [Compound 11]
pA2: 8.76
--
Molecule: Cl.O=C(O)CCCN1CCC(CNC(=O)c2cc(Cl)cc3c2OCCC3)C(O)C1 (stereo not shown)
pA2: 9.8

###

# Measured on: 5HT4 (Rattus norvegicus, UniProt Q62758)
# Construct: 5HT4 Antagonism in Rat Oesophageal Tunica Muscularis Mucosae; from tissue; host or cells: rat oesophageal tunica muscularis mucosae
# Assay: 5HT4 antagonism in rat oesophageal tunica muscularis mucosae
# Assay type: cell-based
# Condition description: 5HT4 antagonistic data; isolated rat oesophageal tunica muscularis mucosae, method of Baxter et al.
Observable: pA2

Molecule: O=C(NCC1CCN(CCOCCO)CC1O)c1cc(Cl)cc2c1OCC2 (centres unmarked)
Measured on: 5HT4 (Rattus norvegicus, UniProt Q62758)
pA2: 9.6
//
Molecule: Cl.O=C(O)CCCN1CCC(CNC(=O)c2cc(Cl)cc3c2OCCCO3)C(O)C1 (centres unmarked)
Measured on: 5HT4 (Rattus norvegicus, UniProt Q62758)
pA2: 9.1
//
Molecule: COC1CN(CCCC(C)=O)CCC1CNC(=O)c1cc(Cl)cc2c1OCCCO2.O=C(O)C(=O)O (centres unmarked) [Compound 135]
Measured on: 5HT4 (Rattus norvegicus, UniProt Q62758)
pA2: 8.1
//
Molecule: COC(=O)CCCN1CCC(CNC(=O)c2cc(Cl)cc3c2OCCC3)C(O)C1 (centres unmarked)
Measured on: 5HT4 (Rattus norvegicus, UniProt Q62758)
pA2: 9.5
//
Molecule: CCCCN1CCC(CNC(=O)c2cc(Cl)cc3c2OCCCO3)C(O)C1 (centres unmarked)
Measured on: 5HT4 (Rattus norvegicus, UniProt Q62758)
pA2: 10.65
//
Molecule: COCCCN1CCC(CNC(=O)c2cc(Cl)cc3c2OCCO3)C(OC)C1.O=C(O)C(=O)O (centres unmarked)
Measured on: 5HT4 (Rattus norvegicus, UniProt Q62758)
pA2: 8.46
//
Molecule: O=C(NCC1CCN(CCCO)CC1O)c1cc(Cl)cc2c1OCCO2 (centres unmarked)
Measured on: 5HT4 (Rattus norvegicus, UniProt Q62758)
pA2: 9.04

###

# Measured on: 5HT4 (Rattus norvegicus, UniProt Q62758)
# Construct: 5HT4 Antagonism in Rat Oesophageal Tunica Muscularis Mucosae; from tissue; host or cells: rat oesophageal tunica muscularis mucosae
# Assay: 5HT4 antagonism in rat oesophageal tunica muscularis mucosae
# Assay type: cell-based
# Condition description: 5HT4 antagonistic data; isolated rat oesophageal tunica muscularis mucosae, method of Baxter et al.
Observable: pA2

Compound: O=C(NCC1CCN(CCCO)CC1O)c1cc(Cl)cc2c1OCCCO2 (centres unmarked)
Observable: pA2
Number: 10.4
--
Compound: O=C(CN1CCC(CNC(=O)c2cc(Cl)cc3c2OCCC3)C(O)C1)c1ccccc1.O=C(O)C(=O)O (centres unmarked)
Observable: pA2
Number: 9.5
--
Compound: CCCCN1CCC(CNC(=O)c2cc(Cl)cc3c2OCCC3)C(O)C1 (centres unmarked)
Observable: pA2
Number: 9.8
--
Compound: COCCCN1CCC(CNC(=O)c2cc(Cl)cc3c2OCCO3)C(O)C1.O=C(O)C(=O)O (centres unmarked)
Observable: pA2
Number: 9.26
--
Compound: Cl.O=C(NCC1CCN(CCOCCO)CC1O)c1cc(Cl)cc2c1OCCO2 (centres unmarked)
Observable: pA2
Number: 9.7
